The reported measurements were obtained from the supplement of paper PMC11417369.

tested on: PfAP2-HC AP2 domain (GST-tagged); test: gcPBM binding intensity (ln(normalized median fluorescence intensity)); higher = stronger DNA binding
The full ranking holds about 25,000 sequences; the median of “ln(normalized median fluorescence intensity)” is about 9.7, and the highest 2% start at about 11. Many of the other results were omitted from the sample, so the highest values are more common in it than they were.
Is gcPBM binding intensity (ln) at least 10? Then TRUE. If not, FALSE.

The following sequences have reported results that may help.
>>> discrete_label("CACCCATAAATATACACACGCACAACACAAAATAAA [CACACA_site2903]")
"TRUE"
>>> discrete_label("GGATATAACAGACACACACACACATATAAATATATT [CACACA_site7866]")
"TRUE"
>>> discrete_label("AAAAAAAAAAAACACACACACAAATACAAATACATA [CACACA_site415]")
"TRUE"
>>> discrete_label("TTTTTTTTTTTTGTAGTGCAAATTAAAAATATATGT")
"FALSE"

Please turn your attention to the following entry.
Input: Textbook exercise: given the entry AAAATACACGCATACACACACACACCCACCCATATA [CACACA_site639] , state whether its gcPBM binding intensity (ln) is greater than or equal to 10.
Output: TRUE

* * *

test system: PfAP2-HC AP2 domain (GST-tagged); assay: gcPBM binding intensity (ln(normalized median fluorescence intensity)); higher = stronger DNA binding
The full ranking holds about 25,000 sequences; the median of “ln(normalized median fluorescence intensity)” is about 9.7, and the highest 2% start at about 11. The sample holds the highest values, similar sequences and a random draw of the others, so the mix is not that of the screen.
Hi, to clarify the labels: yes covers gcPBM binding intensity (ln) from 10 upward, no covers anything below 10.

>>> discrete_label("TAATTTTTTTTTTTTTTTCATTCTTTTCCTTTGATT [CACACA_negctrl_site1365]")
"no"

Input: gcPBM binding intensity (ln) >= 10 for AAAAATAAAAGGTGTGCACACAAAAATATATATATA [CACACA_site8507] ?
Output: yes

Input: Consider next the sequence AAAAAACACAGACACACACACATATACATACATACA [CACACA_site2666] in the same way.
Output: yes

Input: Check AATGGTAATCCACATACACACACACCGACACATATA [CACACA_site8876] too.
Output: yes

Input: Also ATAATATGAAAACACACACACACACTAATAAAAAAA [CACACA_site8617] ?
Output: yes

Input: Could you do the same for ATAATATGAAAACACACACACACACTAGAAAAAAAA [CACACA_site5153] , please?
Output: yes

Input: Please do the same for TGCACCCACCAACACACACACAACTAAAAAATAATG [CACACA_site2566] as well.
Output: yes

* * *

tested on: PfAP2-HC AP2 domain (GST-tagged); experiment: gcPBM binding intensity (ln(normalized median fluorescence intensity)); higher = stronger DNA binding
In all, about 25,000 sequences were measured (“ln(normalized median fluorescence intensity)”: median about 9.7, highest 2% from about 11 on). The full list was thinned out, with the highest values kept by preference.
Reported gcPBM binding intensity (ln) values are given for each entry in this list.
Enter the number alone.

Solved entries:
>>> meas_value("AAATAAATGAAACACACACACACAAAAAAAAAAAAC [CACACA_site2625]")
10.9
>>> meas_value("CTCCATATGAAACACACACACAAATGAAAAAAATAT [CACACA_site3018]")
11
>>> meas_value("AAAAAAAAAAAAAACACACACATATATATATATATA [CACACA_site1891]")
10.4
>>> meas_value("CTCCATATTAGACACACACACAAATGAAAAAAATAT [CACACA_site7420]")
10.2

Please examine the following record next.
Input: # gcPBM binding intensity (ln) lookup, item GTTACACCAACAAACACACACACACCCACCCACAAA [CACACA_site2427]
Output: 10.6
